- assay-target: ALK(G1202R) (Homo sapiens, UniProt Q9UM73, G1202R)
- Sequence (Q9UM73 19-1620 G1202R): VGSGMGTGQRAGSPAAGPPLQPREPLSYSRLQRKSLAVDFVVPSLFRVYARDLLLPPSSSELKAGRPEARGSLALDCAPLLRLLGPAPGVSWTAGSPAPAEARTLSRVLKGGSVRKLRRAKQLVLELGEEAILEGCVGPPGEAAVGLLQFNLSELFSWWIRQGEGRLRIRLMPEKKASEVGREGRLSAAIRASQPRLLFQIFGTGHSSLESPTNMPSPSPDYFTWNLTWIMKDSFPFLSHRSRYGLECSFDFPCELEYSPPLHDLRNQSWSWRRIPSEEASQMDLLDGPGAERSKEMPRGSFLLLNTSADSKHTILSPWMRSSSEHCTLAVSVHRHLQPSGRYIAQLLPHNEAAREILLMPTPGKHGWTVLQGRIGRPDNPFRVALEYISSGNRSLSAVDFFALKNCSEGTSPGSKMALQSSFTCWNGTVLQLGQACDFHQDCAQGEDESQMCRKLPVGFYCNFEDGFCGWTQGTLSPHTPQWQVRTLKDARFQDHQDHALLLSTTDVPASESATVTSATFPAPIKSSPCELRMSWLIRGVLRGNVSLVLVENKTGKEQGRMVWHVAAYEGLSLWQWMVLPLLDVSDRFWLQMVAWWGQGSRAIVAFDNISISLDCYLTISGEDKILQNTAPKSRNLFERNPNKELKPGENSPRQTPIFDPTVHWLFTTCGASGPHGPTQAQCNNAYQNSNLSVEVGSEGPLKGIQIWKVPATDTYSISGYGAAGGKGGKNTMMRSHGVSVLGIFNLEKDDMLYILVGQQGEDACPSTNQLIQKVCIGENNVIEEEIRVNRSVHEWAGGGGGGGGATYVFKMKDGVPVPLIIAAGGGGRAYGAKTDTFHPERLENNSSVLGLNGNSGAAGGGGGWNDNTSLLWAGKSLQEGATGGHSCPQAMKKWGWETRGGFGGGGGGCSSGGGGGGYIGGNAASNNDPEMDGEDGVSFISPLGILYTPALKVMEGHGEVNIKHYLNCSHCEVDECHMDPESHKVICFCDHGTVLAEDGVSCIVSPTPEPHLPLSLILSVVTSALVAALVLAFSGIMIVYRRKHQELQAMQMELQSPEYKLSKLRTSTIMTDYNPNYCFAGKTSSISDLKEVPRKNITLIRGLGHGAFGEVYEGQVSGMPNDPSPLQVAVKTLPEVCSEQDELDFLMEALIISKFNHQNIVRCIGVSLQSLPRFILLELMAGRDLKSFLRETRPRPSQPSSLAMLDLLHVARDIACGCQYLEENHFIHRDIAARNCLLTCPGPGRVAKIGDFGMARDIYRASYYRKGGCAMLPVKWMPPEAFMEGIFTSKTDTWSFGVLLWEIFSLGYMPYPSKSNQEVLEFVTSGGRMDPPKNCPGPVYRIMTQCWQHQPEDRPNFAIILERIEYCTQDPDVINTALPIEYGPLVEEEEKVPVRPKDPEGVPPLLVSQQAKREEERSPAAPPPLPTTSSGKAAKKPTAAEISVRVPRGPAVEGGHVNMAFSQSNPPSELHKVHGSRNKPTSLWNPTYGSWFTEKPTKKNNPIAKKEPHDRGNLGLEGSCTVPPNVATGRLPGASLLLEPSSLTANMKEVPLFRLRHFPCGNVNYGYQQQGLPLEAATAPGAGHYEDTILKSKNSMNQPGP
- test-name: Kinase inhibitory activity, [33P]-ATP filter assay, ALK(G1202R)
- condition-info: ALK point mutant kinase, scintillation counting
pIC50: −log10 of the molar value.
measure: pIC50

structure_smiles=Cc1cc(Nc2ncc(Cl)c(Nc3ccccc3N(C)S(=O)(=O)C3CC3)n2)c(OC(C)C)cc1C1=CCN(C2CCOCC2)CC1 measure=pIC50 numeric_result=9.15
structure_smiles=Cc1cc(Nc2ncc(Cl)c(Nc3ccccc3NS(C)(=O)=O)n2)c(OC(C)C)cc1C1=CCN(C2CCOCC2)CC1 measure=pIC50 numeric_result=7.59
structure_smiles=Cc1cc(Nc2ncc(Cl)c(Nc3ccccc3N(C)S(C)(=O)=O)n2)c(OCC(F)(F)F)cc1C1=CCN(C2CCOCC2)CC1 measure=pIC50 numeric_result=7.98
structure_smiles=Cc1cc(Nc2ncc(Cl)c(Nc3ccccc3N(C)S(C)(=O)=O)n2)c(OC(C)C)cc1C1=CCN(C2CCOCC2)CC1 measure=pIC50 numeric_result=7.75
structure_smiles=Cc1cc(Nc2ncc(Cl)c(Nc3ccccc3N(C)S(=O)(=O)C(C)C)n2)c(OC(C)C)cc1C1=CCN(C2CCOCC2)CC1 measure=pIC50 numeric_result=6.79

###

- assay-target: ALK(G1202R) (Homo sapiens, UniProt Q9UM73, G1202R)
- test-name: Kinase inhibitory activity, [33P]-ATP filter assay, ALK(G1202R)
- condition-info: ALK point mutant kinase, scintillation counting
pIC50: −log10 of the molar value.
measure: pIC50

compound=Cc1cc(Nc2ncc(Cl)c(Nc3ccccc3N(C3CC3)S(C)(=O)=O)n2)c(OC(C)C)cc1C1=CCN(C2CCOCC2)CC1 value_modifier== numeric_result=6.82
compound=Cc1cc(Nc2ncc(Cl)c(Nc3ccccc3N(C)S(N)(=O)=O)n2)c(OC(C)C)cc1C1=CCN(C2CCOCC2)CC1 value_modifier== numeric_result=7.75
compound="Cc1cc(Nc2ncc(Cl)c(Nc3ccccc3S(=O)(=O)C(C)C)n2)c(OC(C)C)cc1C1=CCN(C2CCOCC2)CC1 [APG-2449, reference compound]" value_modifier=< numeric_result=6.00
compound=Cc1cc(Nc2ncc(Cl)c(Nc3ccccc3N(C(C)C)S(C)(=O)=O)n2)c(OC(C)C)cc1C1=CCN(C2CCOCC2)CC1 value_modifier== numeric_result=6.60

###

- assay-target: ALK(L1196M) (Homo sapiens, UniProt Q9UM73, L1196M)
- Sequence (Q9UM73 19-1620 L1196M): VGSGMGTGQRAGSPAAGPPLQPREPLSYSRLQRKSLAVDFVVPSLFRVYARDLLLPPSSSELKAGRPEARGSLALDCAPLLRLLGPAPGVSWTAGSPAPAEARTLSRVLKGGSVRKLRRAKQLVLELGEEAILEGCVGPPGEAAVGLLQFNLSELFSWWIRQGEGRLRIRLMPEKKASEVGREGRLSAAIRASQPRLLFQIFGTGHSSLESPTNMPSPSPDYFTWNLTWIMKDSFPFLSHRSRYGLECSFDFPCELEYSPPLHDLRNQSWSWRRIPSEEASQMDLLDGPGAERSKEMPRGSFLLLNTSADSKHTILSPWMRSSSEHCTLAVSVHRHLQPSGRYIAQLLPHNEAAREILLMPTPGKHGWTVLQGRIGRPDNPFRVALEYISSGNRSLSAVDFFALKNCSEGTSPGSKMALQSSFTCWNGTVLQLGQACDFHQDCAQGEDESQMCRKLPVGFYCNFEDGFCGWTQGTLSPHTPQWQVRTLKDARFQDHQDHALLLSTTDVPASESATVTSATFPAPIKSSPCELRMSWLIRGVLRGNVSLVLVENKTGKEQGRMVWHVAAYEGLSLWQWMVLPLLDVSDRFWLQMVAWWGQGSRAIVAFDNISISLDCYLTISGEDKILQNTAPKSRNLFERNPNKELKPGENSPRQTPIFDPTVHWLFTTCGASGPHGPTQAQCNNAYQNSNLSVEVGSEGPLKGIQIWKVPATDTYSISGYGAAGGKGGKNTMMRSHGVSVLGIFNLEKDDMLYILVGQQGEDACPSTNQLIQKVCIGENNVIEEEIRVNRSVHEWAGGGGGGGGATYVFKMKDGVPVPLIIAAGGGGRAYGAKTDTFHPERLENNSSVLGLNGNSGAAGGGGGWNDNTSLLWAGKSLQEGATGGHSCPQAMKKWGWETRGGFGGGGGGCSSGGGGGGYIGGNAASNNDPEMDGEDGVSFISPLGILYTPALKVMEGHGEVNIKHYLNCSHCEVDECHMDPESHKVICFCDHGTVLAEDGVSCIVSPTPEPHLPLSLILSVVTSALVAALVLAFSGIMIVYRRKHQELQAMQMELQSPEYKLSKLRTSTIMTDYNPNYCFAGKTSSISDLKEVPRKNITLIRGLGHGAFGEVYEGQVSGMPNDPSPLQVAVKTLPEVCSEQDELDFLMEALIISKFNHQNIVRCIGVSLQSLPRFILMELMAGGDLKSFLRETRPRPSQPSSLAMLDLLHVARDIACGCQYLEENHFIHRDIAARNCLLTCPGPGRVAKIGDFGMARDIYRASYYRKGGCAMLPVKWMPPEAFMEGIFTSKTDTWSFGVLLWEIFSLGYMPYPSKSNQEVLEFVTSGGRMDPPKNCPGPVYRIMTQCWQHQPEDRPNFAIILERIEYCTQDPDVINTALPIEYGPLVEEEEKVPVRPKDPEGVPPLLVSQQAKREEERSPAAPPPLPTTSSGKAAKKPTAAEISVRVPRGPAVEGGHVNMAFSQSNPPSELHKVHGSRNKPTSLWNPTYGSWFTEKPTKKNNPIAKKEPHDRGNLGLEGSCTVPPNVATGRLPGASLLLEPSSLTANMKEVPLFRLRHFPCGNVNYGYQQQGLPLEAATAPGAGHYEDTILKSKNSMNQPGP
- test-name: Kinase inhibitory activity, [33P]-ATP filter assay, ALK(L1196M)
- Assay type: biochemical
- condition-info: ALK point mutant kinase, scintillation counting
measure: IC50 (nM)

compound=Cc1cc(Nc2ncc(Cl)c(Nc3ccccc3NS(C)(=O)=O)n2)c(OC(C)C)cc1C1=CCN(C2CCOCC2)CC1 measure=IC50 measurement_units=nM numeric_result=0.6
compound=Cc1cc(Nc2ncc(Cl)c(Nc3ccccc3N(C)S(C)(=O)=O)n2)c(OC(C)C)cc1C1=CCN(C2CCOCC2)CC1 measure=IC50 measurement_units=nM numeric_result=0.2
compound="Cc1cc(Nc2ncc(Cl)c(Nc3ccccc3S(=O)(=O)C(C)C)n2)c(OC(C)C)cc1C1=CCN(C2CCOCC2)CC1 [APG-2449, reference compound]" measure=IC50 measurement_units=nM numeric_result=0.9
compound=Cc1cc(Nc2ncc(Cl)c(Nc3ccccc3N(C)S(=O)(=O)C3CC3)n2)c(OC(C)C)cc1C1=CCN(C2CCOCC2)CC1 measure=IC50 measurement_units=nM numeric_result=0.05
compound=Cc1cc(Nc2ncc(Cl)c(Nc3ccccc3N(C3CC3)S(C)(=O)=O)n2)c(OC(C)C)cc1C1=CCN(C2CCOCC2)CC1 measure=IC50 measurement_units=nM numeric_result=0.5
compound=Cc1cc(Nc2ncc(Cl)c(Nc3ccccc3N(C)S(=O)(=O)C(C)C)n2)c(OC(C)C)cc1C1=CCN(C2CCOCC2)CC1 measure=IC50 measurement_units=nM numeric_result=0.3

###

Measured pIC50, listed per entry for reference.
- assay-target: ALK(L1196M) (Homo sapiens, UniProt Q9UM73, L1196M)
- test-name: Kinase inhibitory activity, [33P]-ATP filter assay, ALK(L1196M)
- condition-info: ALK point mutant kinase, scintillation counting
pIC50: −log10 of the molar value.
measure: pIC50

structure_smiles=Cc1cc(Nc2ncc(Cl)c(Nc3ccccc3N(C)S(C)(=O)=O)n2)c(OCC(F)(F)F)cc1C1=CCN(C2CCOCC2)CC1 measure=pIC50 numeric_result=10.30
structure_smiles=Cc1cc(Nc2ncc(Cl)c(Nc3ccccc3N(C)S(N)(=O)=O)n2)c(OC(C)C)cc1C1=CCN(C2CCOCC2)CC1 measure=pIC50 numeric_result=10.15
structure_smiles=Cc1cc(Nc2ncc(Cl)c(Nc3ccccc3N(C(C)C)S(C)(=O)=O)n2)c(OC(C)C)cc1C1=CCN(C2CCOCC2)CC1 measure=pIC50 numeric_result=8.17
